Recorded pIC50 by entry
test system: A549; assay: Antiproliferative activity against human A549 cells expressing wild type p53 after 72 hrs by MTT assay; conditions: A549, 72 h
pIC50: −log10 of the molar value.
measured metric: pIC50

[[record]]
compound = "COc1ccc(C2=NC(c3ccc(Cl)cc3)C(c3ccc(Cl)cc3)N2C(=O)NCC(=O)N2CCOCC2)c(OC(C)C)c1 (stereo not drawn)"
measured_metric = "pIC50"
quantitative_result = 5.08

[[record]]
compound = "CCN(CC)CCC(=O)N1C(c2ccc(OC)cc2OC(C)C)=NC(c2ccc(Cl)cc2)C1c1ccc(Cl)cc1 (stereo not drawn)"
measured_metric = "pIC50"
quantitative_result = 5.42

[[record]]
compound = "COc1ccc(C2=NC(c3ccc(Cl)cc3)C(c3ccc(Cl)cc3)N2C(=O)OCCN(C)C)c(OC(C)C)c1 (stereo not drawn)"
measured_metric = "pIC50"
quantitative_result = 4.96


---

Recorded log10 Ki by entry
target: Tumour suppressor p53/oncoprotein Mdm2 (Homo sapiens)
Sequence (P04637 whole entry): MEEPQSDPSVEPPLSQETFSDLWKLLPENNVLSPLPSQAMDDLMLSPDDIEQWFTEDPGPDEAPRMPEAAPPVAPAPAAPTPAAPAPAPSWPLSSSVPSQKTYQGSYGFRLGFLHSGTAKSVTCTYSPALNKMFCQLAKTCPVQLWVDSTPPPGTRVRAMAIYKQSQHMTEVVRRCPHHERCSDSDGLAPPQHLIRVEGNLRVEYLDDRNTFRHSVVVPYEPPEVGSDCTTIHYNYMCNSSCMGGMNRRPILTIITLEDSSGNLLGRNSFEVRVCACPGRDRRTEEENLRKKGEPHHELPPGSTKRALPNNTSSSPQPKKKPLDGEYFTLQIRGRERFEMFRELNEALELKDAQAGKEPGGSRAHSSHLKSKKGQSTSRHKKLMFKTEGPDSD
Sequence (Q00987 whole entry): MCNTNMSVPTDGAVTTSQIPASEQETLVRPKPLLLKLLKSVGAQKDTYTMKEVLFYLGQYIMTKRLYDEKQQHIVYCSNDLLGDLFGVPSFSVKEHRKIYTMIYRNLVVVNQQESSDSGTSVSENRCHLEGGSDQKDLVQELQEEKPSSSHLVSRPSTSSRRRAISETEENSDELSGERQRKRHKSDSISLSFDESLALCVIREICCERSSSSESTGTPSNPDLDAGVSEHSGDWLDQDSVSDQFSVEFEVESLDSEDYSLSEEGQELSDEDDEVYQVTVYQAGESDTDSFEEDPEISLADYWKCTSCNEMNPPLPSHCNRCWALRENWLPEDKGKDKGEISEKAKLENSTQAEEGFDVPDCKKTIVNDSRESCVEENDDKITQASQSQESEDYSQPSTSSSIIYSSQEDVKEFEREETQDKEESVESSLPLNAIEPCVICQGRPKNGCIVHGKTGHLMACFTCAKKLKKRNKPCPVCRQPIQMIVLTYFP
measured metric: log10 Ki (log10 of the value in µM)

[[record]]
compound = "COc1ccc(C2=NC(c3ccc(Cl)cc3)C(c3ccc(Cl)cc3)N2C(=O)OCCN(C)C)c(OC(C)C)c1 (stereo unspecified)"
quantitative_result = -0.24

[[record]]
compound = "COCCOC(=O)N1C(c2ccc(OC)cc2OC(C)C)=NC(c2ccc(Cl)cc2)C1c1ccc(Cl)cc1 (stereo unspecified)"
quantitative_result = 0.36

[[record]]
compound = "COc1ccc(C2=NC(c3ccc(Cl)cc3)C(c3ccc(Cl)cc3)N2C(=O)OCCNC(C)=O)c(OC(C)C)c1 (stereo unspecified)"
quantitative_result = -0.22

[[record]]
compound = "COc1ccc(C2=NC(c3ccc(Cl)cc3)C(c3ccc(Cl)cc3)N2C(=O)CN2CCN(C)CC2)c(OC(C)C)c1 (stereo unspecified)"
quantitative_result = 1.41

[[record]]
compound = "COc1ccc(C2=NC(c3ccc(Cl)cc3)C(c3ccc(Cl)cc3)N2C(=O)CN2CCCCC2)c(OC(C)C)c1 (stereo unspecified)"
quantitative_result = 1.91

[[record]]
compound = "COc1ccc(C2=NC(c3ccc(Cl)cc3)C(c3ccc(Cl)cc3)N2C(=O)N(C)C)c(OC(C)C)c1 (stereo unspecified)"
quantitative_result = 0.52

[[record]]
compound = "COc1ccc(C2=NC(c3ccc(Cl)cc3)C(c3ccc(Cl)cc3)N2C(=O)NCC(=O)N2CCOCC2)c(OC(C)C)c1 (stereo unspecified)"
quantitative_result = -0.32

[[record]]
compound = "CCN(CC)CCC(=O)N1C(c2ccc(OC)cc2OC(C)C)=NC(c2ccc(Cl)cc2)C1c1ccc(Cl)cc1 (stereo unspecified)"
quantitative_result = 0.09

[[record]]
compound = "CCOC(=O)CN(C)C(=O)N1C(c2ccc(OC)cc2OC(C)C)=NC(c2ccc(Cl)cc2)C1c1ccc(Cl)cc1 (stereo unspecified)"
quantitative_result = 0.20

[[record]]
compound = "COc1ccc(C2=NC(c3ccc(Cl)cc3)C(c3ccc(Cl)cc3)N2C(=O)CCN2CCN(C)CC2)c(OC(C)C)c1 (stereo unspecified)"
quantitative_result = -0.05

[[record]]
compound = "COc1ccc(C2=NC(c3ccc(Cl)cc3)C(c3ccc(Cl)cc3)N2C(=O)N2CCC(C(=O)O)CC2)c(OC(C)C)c1 (stereo unspecified)"
quantitative_result = 0.94

